Entry source: patent US6858591B2

# Tested on: CNS GC 4537
# experiment: In vitro MIC, broth dilution
# Assay type: cell-based
recordedMetric: MIC (µg/mL)
Note: unit µg/mL is implicit; provide only the numeric part.

Query COc1ccc(Cn2c(=O)ccn([C@@H]3OC([C@H](O)[C@H](NCCCNC(=O)C(NC(=O)[C@H](CCCNC(=N)N[N+](=O)[O-])NC(=O)N[C@H](C(=O)OCc4ccccc4)C(C)C)[C@@H](C)O)C(=O)OC(C)(C)C)[C@@H](O[Si](C)(C)C(C)(C)C)[C@H]3O[Si](C)(C)C(C)(C)C)c2=O)cc1 (some centres unmarked) [Example 30] yields MIC of 128

----------
# System: M. morganii GC 4531
# experiment: In vitro MIC, broth dilution
# Type: cell-based
# measurementSetup: Morganella morganii, GC4531; M. morganii GC 4531; read-out: MIC
As shown below, each of these compounds has a reported MIC value.

In the examples that follow, each entry is paired with its recorded MIC.
compound="CCOC(=O)C(NCCCNC(=O)[C@H](CC(C)C)NC(=O)OCc1ccccc1)C(OC(C)=O)[C@H]1O[C@H](n2ccc(=O)[nH]c2=O)[C@H](OC(C)=O)[C@@H]1OC(C)=O (stereo partly shown) [Example 38a]" testedsystem="M. morganii GC 4531" recordedmetric=MIC obsvalue="> 128 µg/mL"
compound="COc1ccc(Cn2c(=O)ccn([C@@H]3OC(C(O)[C@H](NCCCNC(=O)[C@@H](N)CC(=O)O)C(=O)OC(C)(C)C)[C@@H](O[Si](C)(C)C(C)(C)C)[C@H]3O[Si](C)(C)C(C)(C)C)c2=O)cc1 (stereo in doubt) [Example 17]" testedsystem="M. morganii GC 4531" recordedmetric=MIC obsvalue="> 128 µg/mL"
compound="CCOC(=O)C(NCCCNC(=O)[C@H](CC(C)C)NC(=O)OCc1ccccc1)C(OC(C)=O)[C@H]1O[C@@H](n2ccc(=O)[nH]c2=O)[C@H](OC(C)=O)[C@@H]1OC(C)=O (stereo partly shown) [Example 38b]" testedsystem="M. morganii GC 4531" recordedmetric=MIC obsvalue="> 128 µg/mL"

Lab note: next compound to report on.
Query COc1ccc(Cn2c(=O)ccn([C@@H]3OC([C@H](O)[C@H](NCCCNC(=O)[C@@H](N)CCC(=O)OC(C)(C)C)C(=O)OC(C)(C)C)[C@@H](O[Si](C)(C)C(C)(C)C)[C@H]3O[Si](C)(C)C(C)(C)C)c2=O)cc1 (stereo partly shown) [Example 21] yields MIC of > 128 µg/mL

----------
# Test system: E. faecalis GC 4555
# experiment: In vitro MIC, broth dilution
# Type: cell-based
# measurementSetup: Enterococcus faecalis, GC4555
recordedMetric: MIC

In the examples that follow, each entry is paired with its recorded MIC.
compound="COc1ccc(Cn2c(=O)ccn([C@@H]3OC([C@H](O)[C@H](NC(=O)CCCCCCCCCCNC(=O)OCC4c5ccccc5-c5ccccc54)C(=O)OC(C)(C)C)[C@@H](O[Si](C)(C)C(C)(C)C)[C@H]3O[Si](C)(C)C(C)(C)C)c2=O)cc1 (stereo partly shown)" recordedmetric=MIC obsvalue="> 128 µg/mL"
compound="COc1ccc(Cn2c(=O)ccn([C@@H]3OC([C@H](O)[C@H](NCCCNC(=O)[C@H](CC(C)C)NC(=O)[C@H](CCCNC(=N)N)NC(=O)N[C@H](C(=O)O)C(C)C)C(=O)OC(C)(C)C)[C@@H](O[Si](C)(C)C(C)(C)C)[C@H]3O[Si](C)(C)C(C)(C)C)c2=O)cc1 (stereo partly shown)" recordedmetric=MIC obsvalue="> 128 µg/mL"
compound="COc1ccc(Cn2c(=O)ccn([C@@H]3OC([C@H](O)[C@H](NCCCNC(=O)[C@@H](NC(=O)OCc4ccccc4)[C@H](C)O)C(=O)OC(C)(C)C)[C@@H](O[Si](C)(C)C(C)(C)C)[C@H]3O[Si](C)(C)C(C)(C)C)c2=O)cc1 (stereo partly shown)" recordedmetric=MIC obsvalue="> 128 µg/mL"

Lab note: next compound to report on.
Query COc1ccc(Cn2c(=O)ccn([C@@H]3OC([C@H](O)[C@H](NCCCNC(=O)[C@@H](NC(=O)OCc4ccccc4)[C@@H](O)C(C)C)C(=O)OC(C)(C)C)[C@@H](O[Si](C)(C)C(C)(C)C)[C@H]3O[Si](C)(C)C(C)(C)C)c2=O)cc1 (stereo partly shown) yields MIC of 128 µg/mL
